Target: mouse TRPA1 (mTRPA1), Transient receptor potential ankyrin 1 cation channel (Mus musculus, UniProt Q8BLA8)
Sequence (Q8BLA8 whole entry): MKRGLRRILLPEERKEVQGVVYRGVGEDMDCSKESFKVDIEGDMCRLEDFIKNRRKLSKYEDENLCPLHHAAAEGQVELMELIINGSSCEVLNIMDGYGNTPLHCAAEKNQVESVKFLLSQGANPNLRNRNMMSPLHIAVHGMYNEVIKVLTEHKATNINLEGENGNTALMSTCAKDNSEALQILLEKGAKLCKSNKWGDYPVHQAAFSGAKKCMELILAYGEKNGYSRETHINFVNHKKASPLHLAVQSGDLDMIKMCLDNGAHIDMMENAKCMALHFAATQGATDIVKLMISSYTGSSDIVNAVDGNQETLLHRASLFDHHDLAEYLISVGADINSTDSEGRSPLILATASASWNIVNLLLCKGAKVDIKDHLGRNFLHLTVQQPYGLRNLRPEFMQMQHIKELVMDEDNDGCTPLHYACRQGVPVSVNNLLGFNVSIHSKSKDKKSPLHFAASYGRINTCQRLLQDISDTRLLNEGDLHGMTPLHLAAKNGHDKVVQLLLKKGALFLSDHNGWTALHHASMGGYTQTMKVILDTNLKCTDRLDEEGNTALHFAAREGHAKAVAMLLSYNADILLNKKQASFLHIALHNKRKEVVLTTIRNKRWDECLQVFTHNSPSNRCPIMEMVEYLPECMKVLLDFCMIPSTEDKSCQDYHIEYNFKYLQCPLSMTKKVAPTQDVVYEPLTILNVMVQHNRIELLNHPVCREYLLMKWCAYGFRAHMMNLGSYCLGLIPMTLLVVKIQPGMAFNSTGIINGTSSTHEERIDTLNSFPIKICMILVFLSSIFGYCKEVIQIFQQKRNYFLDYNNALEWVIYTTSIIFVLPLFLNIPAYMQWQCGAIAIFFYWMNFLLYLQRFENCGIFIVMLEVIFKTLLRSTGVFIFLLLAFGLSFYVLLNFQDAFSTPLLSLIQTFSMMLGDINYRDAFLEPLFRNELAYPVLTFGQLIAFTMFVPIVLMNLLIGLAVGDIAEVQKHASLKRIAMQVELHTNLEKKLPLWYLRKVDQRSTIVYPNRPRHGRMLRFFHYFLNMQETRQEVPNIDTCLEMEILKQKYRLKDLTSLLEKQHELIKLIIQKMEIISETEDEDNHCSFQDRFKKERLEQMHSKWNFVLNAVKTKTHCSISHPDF
Assay: Fura-2 ratiometric Ca2+ imaging, concentration-response in CHO-K1 cells stably transfected with mTRPA1
ENDPOINT_NAME: EC50 (µM)
One number for each entry, in µM.

Entry C=CCN=C=S [AITC, allyl isothiocyanate] , EC50 reported as 4.6
